- test target: human luteinizing hormone (hLH) (Homo sapiens, UniProt P01215;P01229 P01215:25-116,P01229:21-141)
- Sequence (P01215 25-116, chain 1 of 2): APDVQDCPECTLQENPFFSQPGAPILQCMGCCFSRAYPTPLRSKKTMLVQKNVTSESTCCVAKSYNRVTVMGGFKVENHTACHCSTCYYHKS
- Sequence (P01229 21-141, chain 2 of 2): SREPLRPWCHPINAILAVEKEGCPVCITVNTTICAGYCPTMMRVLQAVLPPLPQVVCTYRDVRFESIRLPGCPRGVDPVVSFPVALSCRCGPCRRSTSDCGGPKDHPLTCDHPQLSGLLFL
- protocol text: filter; Mg, pH 6.5
- study conditions: tags: Becton Dickinson (2'-NH2 work); Scripps/Vitro Diagnostics (2'-F work); chain copies: alpha/beta heterodimer (inferred); label: 32P; G4 (RNase T1 protection in K+)
- Method: Internally-labeled RNA transcripts were prepared by including [α-^32P]ATP in T7 RNA polymerase transcription reactions. Full-length transcripts were purified on 8% denaturing polyacrylamide gels to ensure size homogeneity. […] Radioactivity retained on filters was determined by liquid scintillation counting. The quantities of RNA bound to filters in the absence of protein was determined and used for background correction. […]
observed property: Kd (nM)
Please respond with the number in nM and leave the unit unwritten.

Value of Kd reported for the binder H-30 (ssRNA, 2'-NH2 all pyrimidines) RNA: GGGAGGACGAUGCGGUACUGUAAAACAAUCUGGAGGAGGGUCUAGGGGAUGGUGGCAGACGACUCGCCCGA is 51

Recorded values, source patent US5849890.
